Here, each record is paired with measured inhibition data.
Biological target: C-X-C chemokine receptor type 4 (Homo sapiens) (UniProt P61073)
Sequence (P61073 whole entry): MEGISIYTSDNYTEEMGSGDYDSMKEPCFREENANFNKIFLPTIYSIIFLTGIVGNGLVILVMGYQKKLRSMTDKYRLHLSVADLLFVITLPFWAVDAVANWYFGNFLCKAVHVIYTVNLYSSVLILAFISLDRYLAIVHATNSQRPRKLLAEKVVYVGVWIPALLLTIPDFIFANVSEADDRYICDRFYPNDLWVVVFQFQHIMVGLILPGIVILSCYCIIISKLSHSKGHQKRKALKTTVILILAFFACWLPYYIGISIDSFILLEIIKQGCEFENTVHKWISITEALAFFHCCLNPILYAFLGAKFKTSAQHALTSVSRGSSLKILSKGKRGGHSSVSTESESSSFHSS
Test: Inhibition of CXCR4-mediated chemotaxis in human MDA-MB-231 cells assessed as inhibition of CXCL12alpha-induced cell invasion at 100 nM after 22 hrs by hematoxylin/eosin dye-based matrigel assay relative to control
Assay type: functional
Enter your answer as a number in %; do not include the unit.

>  <moleculeSmiles>
Cc1ccc(S(=O)(=O)NCc2ccc(CNC(=O)c3ccc([N+](=O)[O-])cc3)cc2)cc1

>  <endpointName>
inhibition

>  <unitsLabel>
%

>  <result>
55

$$$$

// next item, inhibition requested
Any idea what inhibition was measured for `Cc1ccc(S(=O)(=O)NCc2ccc(CNC(=O)c3cccc(F)c3)cc2)cc1` ?
55
